Test system: strychnine-induced seizures
Assay: animal or person
Format: in vivo, mice
Details: Mus musculus, po, read-out: ED₅₀
reported metric: ED50 (mg/kg)
Dear colleague, please return just the value in mg/kg, with no unit written.

Study these solved cases before continuing.
CC[S+]([O-])c1nnc(-c2ccccc2)n1C (stereo not shown); 8.1
CCSc1nnc(-c2ccccc2F)n1C; 15.1
CCS(=O)(=O)c1nnc(-c2ccccc2)n1C; 8.5

query: Lookup: ED50 / strychnine-induced seizures / `Cn1c(-c2ccccc2)nnc1S(C)(=O)=O`
result: 7.3

====

Tested on: strychnine-induced seizures
Experiment: animal or person
Type: in vivo, mice
Settings: Mus musculus, ip, read-out: ED₅₀
reported metric: ED50 (mg/kg)
Dear colleague, please return just the value in mg/kg, with no unit written.

CCSc1nnc(-c2ccccc2F)n1C; 18.6
Cn1c(-c2ccccc2)nnc1S(C)(=O)=O; 12.8
CCS(=O)(=O)c1nnc(-c2ccccc2)n1C; 19.3
CC[S+]([O-])c1nnc(-c2ccccc2)n1C (centres unmarked); 14.4

Kindly review the next compound as well.
query: # ED50 lookup, item CN1C(=O)CN=C(c2ccccc2)c2cc(Cl)ccc21 [Diazepam, reference compound]
result: 1.2
